Test system: NCI-H460 lung
protocolDetails: NCI-60 one-dose screen, 48 h (100 = growth as untreated, 0 = no growth, -100 = all killed)
experimentalParameters: 10 µM unless noted
This is part of a sample that, as a whole, favours compounds with a hit. Of some 83,000 tested, about 20% had one in any assay. The source made the active and inactive calls. How the source made its calls: active means growth percent below 10; inactive means the rest.
Entries and their measured growth follow.

Look over these answered cases.
compound: O=C(CCCCCCCC(=O)N1CCCCC1)N1CCCCC1
growth: 98.7% (inactive)

compound: O=S(=O)(Nc1ccc2ccccc2c1)c1ccc(-c2cnc(C3CC3)o2)cc1
growth: 15.2% (inactive)

compound: CC1=Nc2cnc(Nc3ccc(N4CCCCC4)cc3)nc2Nc2ccccc21
growth: 86.8% (inactive)

compound: Cc1ccc(OCCOCCOCCOc2ccc(C)n(O)c2=S)c(=S)n1O
growth: 17.3% (inactive)

compound: c1ccc(-c2c(-c3ccccc3)[n+](Cc3ccc4ccccc4c3)cn2Cc2ccc3ccccc3c2)cc1
growth: -78.6% (active)

Input: Jot down growth (NCI-H460 lung) of COc1cc2c(cc1-c1c(C)noc1C)ncc1nc(CN3CCOCC3)n([C@H](C)COC(F)F)c12 .
Output: 51.9% (inactive)

Input: Enter recorded growth with NCI-H460 lung for O=S(=O)(NCCNc1nccc(-c2c(-c3ccc(F)c(O)c3)nc3sccn23)n1)c1ccc(Cl)cc1 here.
Output: 27% (inactive)

Input: State recorded growth with NCI-H460 lung, entry CCCCCc1ccc(S(=O)(=O)Nc2ccc3nc(N)oc3c2)cc1 , no comment.
Output: 60.8% (inactive)

Input: Write down the reported growth (system: NCI-H460 lung) of COC(=O)[C@]1(C)CCC[C@]2(C)[C@H]3C[C@@H]4[C@H]5[C@@H]6CC/C(=N\OCC/C(N)=N/O)[C@H]5[C@@]3(CC[C@H]21)CC4(C(C)C)O6
Output: 67.5% (inactive)

Input: Give growth; test system NCI-H460 lung; compound CC1(C)N=C(N)N=C(N)N1c1cc(Cl)ccc1Cl
Output: 32.3% (inactive)

Input: Provide growth, tested on NCI-H460 lung, for Cc1cc(Cl)nc(N2CCN(CCNc3ccnc4cc(Cl)ccc34)CC2)n1 .
Output: 48.3% (inactive)

Input: Give growth; test system NCI-H460 lung; compound Cc1ccc(S(=O)(=O)OC[C@]23CCC(C)(C)C[C@H]2C2=CC[C@@H]4[C@@]5(C)CCCNC(C)(C)[C@@H]5CC[C@@]4(C)[C@]2(C)CC3)cc1
Output: -60.2% (active)

Input: Give measured growth for c1cc(OCCCCCOc2cccc(-c3nc4ccccc4[nH]3)c2)cc(-c2nc3ccccc3[nH]2)c1 (NCI-H460 lung).
Output: 6.73% (active)

Input: State recorded growth with NCI-H460 lung, entry Cc1nc2sc(C(=O)Nc3ccccn3)c(N)c2cc1C(C)O (stereo not given) , no comment.
Output: 80.2% (inactive)
